Values from paper PMC9482650

Molecular target: T1, GRIP1_2, Q9Y3R0
T1 sequence (Q9Y3R0 145-248, limits assumed, looked up): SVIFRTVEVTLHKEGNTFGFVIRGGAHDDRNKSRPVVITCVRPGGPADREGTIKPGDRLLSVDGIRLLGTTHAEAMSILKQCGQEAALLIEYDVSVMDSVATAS
Assay: holdup assay
Parameters: key: below the threshold = too weak to quantify, mostly under pKd 3.1 to 4
Settings: plain residues with an end cap or a label only (N-terminal biotin on a linker: ado-ado)
PARAMETER: pKd

TISFTQTSQF [SLC1A1, P43005] :: below the threshold
DGVNEKVSCV [HTR2A, P28223] :: below the threshold
GIKKITSTAL [RPS6KA3, P51812] :: 3.5
EDLEDEWEVI [TECPR2, O15040] :: below the threshold

Query (binder): NVYGIESVKI [GRIA2, P42262] ; field requested: pKd
below the threshold
